test system: c-myc in 22RV-1 cells; test: Human c-myc ELISA assay; assay type: cell-based; settings: Homo sapiens, 22Rv1, 18 h, read-out: Degradation of BRD4: Maximum inhibition (%) c-Myc ELISA in 22RV1 cells
measureName: Emax (%)
Respond with the bare value in %.

Guide cases for Emax, answers given:
| molecule | unitDescriptor | Emax |
| --- | --- | --- |
| Cc1ncsc1-c1ccc(CNC(=O)[C@@H]2C[C@@H](O)CN2C(=O)[C@@H](NC(=O)Cc2ccc(OCCNC(=O)C[C@@H]3N=C(c4ccc(Cl)cc4)c4c(sc(C)c4C)-n4c(C)nnc43)cc2)C(C)(C)C)cc1 [Example 80] | % | 97.5 |
| Cc1ncsc1-c1ccc(CNC(=O)C2C[C@@H](O)CN2C(=O)[C@@H](NC(=O)COCCCOCCOc2cccc(NC(=O)C[C@@H]3N=C(c4ccc(Cl)cc4)c4c(sc(C)c4C)-n4c(C)nnc43)c2)C(C)(C)C)cc1 (stereo partly shown) [Example 94] | % | 98.5 |
| Cc1ncsc1-c1ccc(CNC(=O)[C@@H]2C[C@@H](O)CN2C(=O)[C@H](C(C)C)n2cc(-c3ccnc(O[C@H](C)CNC(=O)C[C@@H]4N=C(c5ccc(Cl)cc5)c5c(sc(C)c5C)-n5c(C)nnc54)c3)cn2)cc1 [Example 168] | % | 92 |

Note: attention shifts to another entry.
Report Emax for Cc1ncsc1-c1ccc([C@H](C)NC(=O)[C@@H]2C[C@@H](O)CN2C(=O)[C@@H](NC(=O)c2ccc(OCCCNC(=O)C[C@@H]3N=C(c4ccc(Cl)cc4)c4c(sc(C)c4C)-n4c(C)nnc43)cn2)C(C)(C)C)cc1 [Example 114] please.
99.5

====

test system: c-myc in 22RV-1 cells; experiment: Human c-myc ELISA assay; assay type: cell-based; conditions: Homo sapiens, 22Rv1, 18 h, read-out: Degradation of BRD4: Maximum inhibition (%) c-Myc ELISA in 22RV1 cells
measureName: Emax (%)
Number only, in %; omit the unit.

| molecule | measureName | resultNumber |
| --- | --- | --- |
| Cc1ncsc1-c1ccc([C@H](C)NC(=O)[C@@H]2C[C@@H](O)CN2C(=O)[C@@H](NC(=O)COc2ccnc(O[C@H]3C[C@H](NC(=O)C[C@@H]4N=C(c5ccc(Cl)cc5)c5c(sc(C)c5C)-n5c(C)nnc54)C3)c2)C(C)(C)C)cc1 [Example 227] | Emax | 100 |
| Cc1ncsc1-c1ccc([C@H](C)NC(=O)[C@@H]2C[C@@H](O)CN2C(=O)[C@@H](NC(=O)Cc2cccc(O[C@H]3C[C@H](NC(=O)C[C@@H]4N=C(c5ccc(Cl)cc5)c5c(sc(C)c5C)-n5c(C)nnc54)C3)c2)C(C)(C)C)cc1 [Example 194] | Emax | 92.4 |
| Cc1ncsc1-c1ccc(CNC(=O)[C@@H]2C[C@@H](O)CN2C(=O)[C@@H](NC(=O)COCCOCCOCCCCOCCOCCNC(=O)C[C@@H]2N=C(c3ccc(Cl)cc3)c3c(sc(C)c3C)-n3c(C)nnc32)C(C)(C)C)cc1 [Example 9] | Emax | 96.4 |
| Cc1ncsc1-c1ccc([C@H](C)NC(=O)[C@@H]2C[C@@H](O)CN2C(=O)[C@@H](NC(=O)COCCC(=O)N2CCN(c3ccc([C@H](C)NC(=O)C[C@@H]4N=C(c5ccc(Cl)cc5)c5c(sc(C)c5C)-n5c(C)nnc54)cc3)CC2)C(C)(C)C)cc1 [Example 48] | Emax | 98 |

Tell me the measured Emax of Cc1ncsc1-c1ccc(CNC(=O)[C@@H]2C[C@@H](O)CN2C(=O)[C@@H](NC(=O)COCCCS(=O)(=O)CCNC(=O)C[C@@H]2N=C(c3ccc(Cl)cc3)c3c(sc(C)c3C)-n3c(C)nnc32)C(C)(C)C)cc1 [Example 101] , please.
88.3

I am curious: what Emax value has been reported for Cc1ncsc1-c1ccc(CNC(=O)[C@@H]2C[C@@H](O)CN2C(=O)[C@@H](NC(=O)COCCCOc2ccc(-c3ccc(NC(=O)C[C@@H]4N=C(c5ccc(Cl)cc5)c5c(sc(C)c5C)-n5c(C)nnc54)c(F)c3)nc2)C(C)(C)C)cc1 [Example 24] ?
87.5

Which Emax value belongs to Cc1ncsc1-c1ccc(CNC(=O)[C@@H]2C[C@@H](O)CN2C(=O)[C@H](C(C)C)n2cc(-c3cccc(O[C@H]4C[C@H](NC(=O)C[C@@H]5N=C(c6ccc(Cl)cc6)c6c(sc(C)c6C)-n6c(C)nnc65)C4)c3)cn2)cc1 [Example 217] ?
91.9

Item under review: Cc1ncoc1-c1ccc([C@H](C)NC(=O)[C@@H]2C[C@@H](O)CN2C(=O)[C@@H](NC(=O)COc2ccc(O[C@H]3C[C@@H](NC(=O)C[C@@H]4N=C(c5ccc(Cl)cc5)c5c(sc(C)c5C)-n5c(C)nnc54)C3)nc2)C(C)(C)C)cc1 [Example 278] . Reported Emax?
95.4

====

tested on: c-myc in 22RV-1 cells; test: Human c-myc ELISA assay; type: cell-based; settings: Homo sapiens, 22Rv1, 18 h, read-out: Degradation of BRD4: Maximum inhibition (%) c-Myc ELISA in 22RV1 cells
The reader will find reported Emax values listed item by item below.
Report as a plain number; the unit % is understood.

| compound | assayedTarget | Emax / % |
| --- | --- | --- |
| Cc1sc2c(c1C)C(c1ccc(Cl)cc1)=N[C@@H](CC(=O)N[C@H]1C[C@@H](Oc3cccc(-c4cnn([C@H](C(=O)N5C[C@H](O)C[C@H]5C(=O)N[C@@H](C)c5ccc(-n6ccnc6C)cc5)C(C)C)c4)c3)C1)c1nnc(C)n1-2 [Example 299] | c-myc in 22RV-1 cells | 72.5 |
| Cc1ncsc1-c1ccc(CNC(=O)[C@@H]2C[C@@H](O)CN2C(=O)[C@@H](NC(=O)COCCCCn2cc(-c3ccc([C@@H](C)NC(=O)C[C@@H]4N=C(c5ccc(Cl)cc5)c5c(sc(C)c5C)-n5c(C)nnc54)cc3)cn2)C(C)(C)C)cc1 [Example 33] | c-myc in 22RV-1 cells | 100 |
| Cc1ncsc1-c1ccc([C@H](C)NC(=O)[C@@H]2C[C@@H](O)CN2C(=O)[C@@H](NC(=O)CN2CCC(O[C@H]3C[C@H](NC(=O)C[C@@H]4N=C(c5ccc(Cl)cc5)c5c(sc(C)c5C)-n5c(C)nnc54)C3)CC2)C(C)(C)C)cc1 [Example 306] | c-myc in 22RV-1 cells | 100 |

Observed Emax on c-myc in 22RV-1 cells for Cc1ncoc1-c1ccc(CNC(=O)[C@@H]2C[C@@H](O)CN2C(=O)[C@H](C(C)C)n2cc(-c3ccnc(O[C@H]4C[C@@H](NC(=O)C[C@@H]5N=C(c6ccc(Cl)cc6)c6c(sc(C)c6C)-n6c(C)nnc65)C4)c3)cn2)cc1 [Example 295] , please.
93.8

Emax of Cc1ncsc1-c1ccc(CNC(=O)C2C[C@@H](O)CN2C(=O)[C@@H](NC(=O)c2cn3cc(OCCNC(=O)C[C@@H]4N=C(c5ccc(Cl)cc5)c5c(sc(C)c5C)-n5c(C)nnc54)ccc3n2)C(C)(C)C)cc1 (stereo partly drawn) [Example 96] on c-myc in 22RV-1 cells?
67.9

Lookup: Emax / c-myc in 22RV-1 cells / Cc1ncsc1-c1ccc([C@H](C)NC(=O)[C@@H]2C[C@@H](O)CN2C(=O)[C@@H](NC(=O)CCc2cc(F)cc(O[C@@H](C)CNC(=O)C[C@@H]3N=C(c4ccc(Cl)cc4)c4c(sc(C)c4C)-n4c(C)nnc43)c2)C(C)(C)C)cc1 [Example 200]
96.5

====

Reported Emax is given for each of the following compounds.
tested on: c-myc in 22RV-1 cells; assay: Human c-myc ELISA assay; format: cell-based; conditions: Homo sapiens, 22Rv1, 18 h, read-out: Degradation of BRD4: Maximum inhibition (%) c-Myc ELISA in 22RV1 cells
Answer format: numeric, % implied, no suffix.

A selection of reference data follows.
| itemSmiles | unitDescriptor | Emax |
| --- | --- | --- |
| Cc1ncsc1-c1ccc(CNC(=O)[C@@H]2C[C@@H](O)CN2C(=O)[C@@H](NC(=O)COCCOCCOCCOCCOCCOCCNC(=O)C[C@@H]2N=C(c3ccc(Cl)cc3)c3c(sc(C)c3C)-n3c(C)nnc32)C(C)(C)C)cc1 | % | 62.2 |
| Cc1sc2c(c1C)C(c1ccc(Cl)cc1)=N[C@@H](CC(=O)N[C@H]1C[C@H](OC3CCN(CC(=O)N[C@H](C(=O)N4C[C@H](O)C[C@H]4C(=O)N[C@@H](C)c4ccc(-c5scnc5CO)cc4)C(C)(C)C)CC3)C1)c1nnc(C)n1-2 | % | 90 |
| Cc1ncsc1-c1ccc(CNC(=O)[C@@H]2C[C@@H](O)CN2C(=O)[C@@H](C(C)C)n2cc(-c3cccc(OCCNC(=O)C[C@@H]4N=C(c5ccc(Cl)cc5)c5c(sc(C)c5C)-n5c(C)nnc54)c3)cn2)cc1 | % | 7.62 |

Requested field: Emax. Item: `Cc1ncsc1-c1ccc([C@H](C)NC(=O)[C@@H]2C[C@@H](O)CN2C(=O)[C@@H](NC(=O)COc2ccc(O[C@H]3C[C@H](NC(=O)C[C@@H]4N=C(c5ccc(Cl)cc5)c5c(sc(C)c5C)-n5c(C)nnc54)C3)nc2)C(C)(C)C)cc1`
98
